test system: Bacillus subtilis; experiment: cleaved RNA product abundance (RNA/gDNA barcode ratio) relative to median wild-type variant (ratio to wild type); higher = more accumulation of the downstream cleavage product; conditions: experiment (reporter, strain, medium): exp 8a: truncated aprE reporter, strain BJT201 with 2% xylose (RNase J1 expressed); cleavage site: glnRA (positions -5 to +31 mutated)
Measured Endpoint: cleaved RNA product abundance

CGACATGTCCCGCTTCTTTCATTAATCCGTTAGCAACTGTTTTGCTATATACATATACTTTTTAAGAGGAGGAAT = 0.975
CGACATGTCCCGCTTCTTTCATTAATCCGTTTGCAACTGTTTTGCTATCTACATTTACCTTTTAAGAGGAGGAAT = 0.203
CGACATGTCCCGCTTCTTTCATTAATTCGTTAGCAACTGTTTTGCCATATACATTTACCTTTTAAGAGGAGGAAT = 0.237
CGACATGTCCCGCTTCTTTCATTAATCCGTTAGCAACTGTTTTTCAATATACATTTACCTTTTAAGAGGAGGAAT = 0.551

Problem: Dear colleague, I am looking for the recorded cleaved RNA product abundance of the following sequence: CGACATGTCCCGCTTCTTTCATTAATCCGTTATAAACTGTTTTGCTATATACATTTACCTTTTAAGAGGAGGAAT
Result: 0.276

Problem: Likewise for CGACATGTCCCGCTTCTTTCATTAATCCGTTACCAACTGTTTTGCTATATCCATTTACCTTTTAAGAGGAGGAAT ?
Result: 0.206

Problem: Field entry: CGACATGTCCCGCTTCTTTCATTAATTCGTTAGCAACTGTTTTGCTATATACATATACCTTTTAAGAGGAGGAAT
Result: 0.859

Problem: Continue with CGACATGTCCCGCTTCTTTCATTAATCCGTTAGAAACTGTTTTCCTATATACATTTACCTTTTAAGAGGAGGAAT
Result: 0.317

Problem: Can you handle CGACATGTCCCGCTTCTTTCATTAATCCGTTAGCAACTGTTTTGCTATATACAATTACCTTTTAAGAGGAGGAAT next?
Result: 0.983

###

tested on: Bacillus subtilis; assay: cleaved RNA product abundance (RNA/gDNA barcode ratio) relative to median wild-type variant (ratio to wild type); higher = more accumulation of the downstream cleavage product; conditions: experiment (reporter, strain, medium): exp 2b: truncated aprE reporter, strain BJT200; cleavage site: cggR-gapA (positions -7 to +36 mutated)
Measured Endpoint: cleaved RNA product abundance
Please reply with the number alone, leaving off any unit.

As a guide, the following entries are already answered.
ACAGACGAAGGAGCCGCAAATGAGTTATTAAAGGATGAATAATCCCTCAATATAAATATCTCTCACTTATTTAAA = 0.181
ACAGACGAAGGAGCCGCAAAGAAGTTTTTAAGGGATGAATAATCCCTCAATATAAATATCTCTCACTTATTTAAA = 0.274
ACAGACGAAGGAGCCGCAAAGAAGTTATTAAGGGAAGAATAATGCCTCAATATAAATATCTCTCACTTATTTAAA = 0.0918
ACAGACGAAGGAGCCGCAAAGTAGTTATTAAGCGATGAATAATCCCTCAATATAAATATCTCTCACTTATTTAAA = 0.0839

Problem: Look up cleaved RNA product abundance: ACAGACGAAGGAGCCGCAAAGAATTTATTAAGGGATGAATAATCCCTCAAAATAAATATCTCTCACTTATTTAAA
Result: 0.198

Problem: How about this sequence: ACAGACGAAGGAGCCGCAAAGAAGTTATTAAGGGATGAATAATCCCTCTATATAATTATCTCTCACTTATTTAAA
Result: 0.29

Problem: // same read-out, input: ACAGACGAAGGAGCCGCAAAGAAGTTATTAAGGGATGAATAACCCCTCAATATAAATATCTCTCACTTATTTAAA
Result: 0.56

Problem: Here is the next sequence: ACAGACGAAGGAGCCGCAACGAAGTTATTAAGGAATGAATAATCCCTCAATATAAATATCTCTCACTTATTTAAA
Result: 0.116

Problem: Entry ACAGACGAAGGAGCCGCAAAGAAGTTATTAAGGAATGAATAATCCCTCAATATAAAAATCTCTCACTTATTTAAA please
Result: 0.127

Problem: Follow-up item: ACAGACGAAGGAGCCGCAAAGAAGTTATTAAGGGATGAATAATCCCTCCATATAAATATCTCTCACTTATTTAAA
Result: 0.243

###

This section presents sequences with their documented cleaved RNA product abundance values.
system: Bacillus subtilis; test: cleaved RNA product abundance (RNA/gDNA barcode ratio) relative to median wild-type variant (ratio to wild type); higher = more accumulation of the downstream cleavage product; details: experiment (reporter, strain, medium): exp 4a: truncated aprE reporter, strain BJT201 with 2% xylose (RNase J1 expressed); cleavage site: cggR-gapA (positions -7 to +36 mutated)
Hey, just send me the number, nothing else.

Examples with their reported cleaved RNA product abundance follow.
ACAGACGAAGGAGCCGCAAAGAAGTTATTAAGGGAAGAATAATCCCTCAACATAAATATCTCTCACTTATTTAAA = 0.257
ACAGACGAAGGAGCCGCAAATAAGTTATTAAGGGATGAATAATCCGTCAATATAAATATCTCTCACTTATTTAAA = 0.299
ACAGACGAAGGAGCCGCAAAGAACTTATTAAGGGATGAACAATCCCTCAATATAAATATCTCTCACTTATTTAAA = 0.344
ACAGACGAAGGAGCCGCAAAGAAGTTATTAAGGGATGAACAATCGCTCAATATAAATATCTCTCACTTATTTAAA = 0.104

Problem: I am curious: what cleaved RNA product abundance value has been reported for ACAGACGAAGGAGCCGCAAAAAAGTTATTAAGGGATTAATAATCCCTCAATATAAATATCTCTCACTTATTTAAA ?
Result: 0.881

Problem: Can you handle ACAGACGAAGGAGCCGCAAAGAAGTTATTAAGGGAAGAATATTCCCTCAATATAAATATCTCTCACTTATTTAAA next?
Result: 0.603

Problem: Now the sequence ACAGACGAAGGAGCCGCAAACACGTTATTAAGGGATGAATAATCCCTCAATATAAATATCTCTCACTTATTTAAA
Result: 1.21

###

tested on: Bacillus subtilis; assay: cleaved RNA product abundance (RNA/gDNA barcode ratio) relative to median wild-type variant (ratio to wild type); higher = more accumulation of the downstream cleavage product; settings: experiment (reporter, strain, medium): exp 2b: truncated aprE reporter, strain BJT200; cleavage site: cggR-gapA (positions -7 to +36 mutated)
Listed sequences paired with reported cleaved RNA product abundance

Problem: For the sequence ACAGACGAAGGAGCCGCAAACAAGTTATTAAGGGATGAATAATACCTCAATATAAATATCTCTCACTTATTTAAA , what cleaved RNA product abundance is on record?
Result: 0.107

Problem: Would you mind doing ACAGACGAAGGAGCCGCAAAGAAGTTAATAAGGGATGAATAATCCCTTAATATAAATATCTCTCACTTATTTAAA as well?
Result: 0.572

Problem: Also ACAGACGAAGGAGCCGCAAAGAAATTATTAAGGGAAGAATAATCCCTCAATATAAATATCTCTCACTTATTTAAA ?
Result: 0.394

###

system: Bacillus subtilis; test: cleaved RNA product abundance (RNA/gDNA barcode ratio) relative to median wild-type variant (ratio to wild type); higher = more accumulation of the downstream cleavage product; details: experiment (reporter, strain, medium): exp 8a: truncated aprE reporter, strain BJT201 with 2% xylose (RNase J1 expressed); cleavage site: glnRA (positions -5 to +31 mutated)
cleaved RNA product abundance: recorded values
Number, no unit, nothing else.

# count of solved cases: 6
CGACATGTCCCGCTTCTTTCATTAATCTGTTAGGAACTGTTTTGCTATATACATTTACCTTTTAAGAGGAGGAAT = 0.268
CGACATGTCCCGCTTCTTTCATTAATCCGTTAGCAACTGTTATTCTATATACATTTACCTTTTAAGAGGAGGAAT = 0.506
CGACATGTCCCGCTTCTTTCATTAATCCGTTAGCAATTGTTTTGCTATATACATGTACCTTTTAAGAGGAGGAAT = 0.526
CGACATGTCCCGCTTCTTTCATTAATCCGTTAGCAAATGTTATGCTATATACATTTACCTTTTAAGAGGAGGAAT = 0.766
CGACATGTCCCGCTTCTTTCATTAATCCGTTAGCAACTGTTTTGCTATAGACATTTAACTTTTAAGAGGAGGAAT = 1.15
CGACATGTCCCGCTTCTTTCATTATTCCGTTAGCAACTGTTGTGCTATATACATTTACCTTTTAAGAGGAGGAAT = 0.941

We now examine a further sequence.
Problem: Query: cleaved RNA product abundance; subject: CGACATGTCCCGCTTCTTTCATTAATCCGTTAGCAACTGTTTTGCTTTATACATATACCTTTTAAGAGGAGGAAT
Result: 0.406
